# experimentalSystem: Cytochrome P450 2D6 (Homo sapiens, UniProt P10635)
# Sequence (P10635 whole entry): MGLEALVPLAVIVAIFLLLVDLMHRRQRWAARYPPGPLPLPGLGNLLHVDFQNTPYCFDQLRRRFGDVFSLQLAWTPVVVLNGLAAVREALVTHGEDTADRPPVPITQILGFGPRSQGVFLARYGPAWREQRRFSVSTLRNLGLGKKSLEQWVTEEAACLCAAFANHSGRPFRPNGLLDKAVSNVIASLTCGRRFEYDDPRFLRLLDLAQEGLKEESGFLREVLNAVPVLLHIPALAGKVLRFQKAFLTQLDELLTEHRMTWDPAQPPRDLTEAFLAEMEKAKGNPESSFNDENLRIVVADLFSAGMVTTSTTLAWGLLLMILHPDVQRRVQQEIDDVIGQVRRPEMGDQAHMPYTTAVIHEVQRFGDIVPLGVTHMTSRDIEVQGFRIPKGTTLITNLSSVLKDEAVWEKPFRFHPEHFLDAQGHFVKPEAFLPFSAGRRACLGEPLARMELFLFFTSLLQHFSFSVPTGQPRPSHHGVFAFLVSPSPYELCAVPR
attributeMeasured: IC50
Answer shape: numeric part, then the unit.

Which IC50 reading was recorded for the compound `COc1cc(N)c(F)cc1C(=O)CCC1CCN(CC2CCCCC2)CC1.O=C(O)/C=C/C(=O)O` ?
600 nM

----------
The reader will find reported inhibition values listed item by item below.
# experimentalSystem: Acetylcholinesterase (Homo sapiens, UniProt P22303)
# Sequence (P22303 whole entry): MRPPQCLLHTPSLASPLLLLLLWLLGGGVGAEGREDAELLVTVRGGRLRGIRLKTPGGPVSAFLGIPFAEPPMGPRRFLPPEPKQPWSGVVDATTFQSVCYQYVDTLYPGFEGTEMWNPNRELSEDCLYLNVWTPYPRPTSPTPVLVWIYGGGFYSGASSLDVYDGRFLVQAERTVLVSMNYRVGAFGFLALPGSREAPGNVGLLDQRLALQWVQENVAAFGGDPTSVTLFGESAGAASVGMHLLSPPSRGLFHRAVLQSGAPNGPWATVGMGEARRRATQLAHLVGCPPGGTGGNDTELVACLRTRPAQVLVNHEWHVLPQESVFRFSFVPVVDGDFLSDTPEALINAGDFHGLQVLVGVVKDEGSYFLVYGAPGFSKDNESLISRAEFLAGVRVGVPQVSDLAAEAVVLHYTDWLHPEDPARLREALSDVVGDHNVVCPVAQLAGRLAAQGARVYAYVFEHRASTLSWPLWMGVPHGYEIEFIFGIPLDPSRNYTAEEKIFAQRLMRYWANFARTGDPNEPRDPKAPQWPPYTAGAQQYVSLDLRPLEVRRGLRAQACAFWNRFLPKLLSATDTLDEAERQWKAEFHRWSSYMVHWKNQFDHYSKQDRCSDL
# assayDetails: Inhibition of recombinant human erythrocyte AChE using acetyl-or butyrylthiocholine iodide as substrate at 1 x 10^-6M preincubated for 5 mins followed by substrate addition and measured every min for 10 mins by Ellman's method relative to control
# conditionDetails: dose 1.0 10^-6M, time 15.0 min
Enter your answer as a number in %; do not include the unit.

Please review the entries below; each comes with its answer.
>>> df
                               samplesmiles  testvalue
0  Nc1cc(OCCF)c(C(=O)CCC2CCN(CC3CCCCC3)CC2)cc1I         45
1  COc1cc(O)c(Cl)cc1C(=O)CCC1CCN(CC2CCCCC2)CC1         78
2  Nc1ccc(C(=O)CCC2CCN(CC3CCCCC3)CC2)c(OCCF)c1         79
3  COc1cc(NC(C)=O)c(Cl)cc1C(=O)CCC1CCN(CC2CCCCC2)CC1         98

I am curious: what inhibition value has been reported for `CCOc1cc(N)c(Cl)cc1C(=O)CCC1CCN(CC2CCCCC2)CC1` ?
69

Try the compound `O=C(CCC1CCN(CC2CCCCC2)CC1)c1ccc(O)cc1`
35
